- Assay target: Neu5Ac(a2-3)Gal(b1-3)GlcNAc(b1-2)[Neu5Ac(a2-3)Gal(b1-3)GlcNAc(b1-4)]Man(a1-6)[Neu5Ac(a2-3)Gal(b1-3)GlcNAc(b1-2)Man(a1-3)]Man(b1-4)GlcNAc(b1-4)GlcNAc
- Procedure summary: glycan array binding signal (z-score within array); higher = stronger binding
- Assay context: glycan notation: IUPAC condensed, linker removed
Only a selection was taken, and the strongest signals are over-represented in it overall.
Catalogue of glycan array binding signal (z-score) values
Respond numerically, and do not add a unit to the figure.

Binder	Number
LysMD3 (Homo sapiens), Q7Z3D4 (protein) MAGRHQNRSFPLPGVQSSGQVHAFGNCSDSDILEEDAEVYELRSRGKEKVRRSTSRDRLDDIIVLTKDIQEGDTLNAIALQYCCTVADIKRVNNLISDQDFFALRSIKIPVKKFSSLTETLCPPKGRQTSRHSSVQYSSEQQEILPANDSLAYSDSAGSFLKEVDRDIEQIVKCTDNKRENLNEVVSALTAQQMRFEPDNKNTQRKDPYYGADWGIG	-0.094

**Q:** Specify measured glycan array binding signal (z-score) for Nc3LysM (protein) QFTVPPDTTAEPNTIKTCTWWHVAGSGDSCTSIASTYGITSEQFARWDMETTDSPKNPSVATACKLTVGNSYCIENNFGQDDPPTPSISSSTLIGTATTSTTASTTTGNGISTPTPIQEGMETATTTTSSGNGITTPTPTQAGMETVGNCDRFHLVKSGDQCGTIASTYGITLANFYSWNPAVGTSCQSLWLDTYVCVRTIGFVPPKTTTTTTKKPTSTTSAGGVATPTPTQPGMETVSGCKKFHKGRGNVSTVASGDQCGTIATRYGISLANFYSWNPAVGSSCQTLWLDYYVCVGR .
**A:** 0.123

**Q:** Specify measured glycan array binding signal (z-score) for Agalectin (Anopheles gambiae) (protein) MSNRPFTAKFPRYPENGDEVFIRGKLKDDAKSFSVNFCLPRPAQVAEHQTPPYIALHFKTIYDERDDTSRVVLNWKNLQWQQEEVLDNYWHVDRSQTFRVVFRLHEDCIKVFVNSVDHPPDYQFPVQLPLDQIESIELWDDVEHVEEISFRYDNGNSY .
**A:** 0.945
